# EXPERIMENTAL TARGET: OATP-B (SLCO2B1, OATP2B1) (Homo sapiens, UniProt O94956)
# MEASUREMENT PROTOCOL: in vitro
# RUN PARAMETERS: HEK293 cells expressing OATP-B, probe E1S (0.00476 uM)
# Description: TP_TRANSPORTER: inhibition of E1S uptake (E1S: 0.00476 uM, nicotinic acid: 10000 uM) in OATP-B-expressing HEK293 cells
MEASUREMENT KIND: activity at 10000 uM (%)

>  <ENTRY SMILES>
O=C(O)c1cccnc1

>  <MEASUREMENT KIND>
activity at 10000 uM

>  <QUANTITATIVE READOUT>
59.7

$$$$

* * *

# EXPERIMENTAL TARGET: UniProtKB O94956
# MEASUREMENT PROTOCOL: TP_TRANSPORTER: inhibition of E1S uptake (E1S: 0.00476 uM, citric acid: 10000 uM) in OATP-B-expressing HEK293 cells
# Format: functional, cell-based
# Design: scale not given: the % may be the effect or the level left
# RUN PARAMETERS: probe E1S (0.00476 uM), read-out: Activity

>  <ENTRY SMILES>
O=C(O)CC(O)(CC(=O)O)C(=O)O

>  <EXPERIMENTAL TARGET>
UniProtKB O94956

>  <activity at 10000 uM (%)>
97.7

$$$$

* * *

# EXPERIMENTAL TARGET: UniProtKB O94956
# Sequence (O94956 whole entry): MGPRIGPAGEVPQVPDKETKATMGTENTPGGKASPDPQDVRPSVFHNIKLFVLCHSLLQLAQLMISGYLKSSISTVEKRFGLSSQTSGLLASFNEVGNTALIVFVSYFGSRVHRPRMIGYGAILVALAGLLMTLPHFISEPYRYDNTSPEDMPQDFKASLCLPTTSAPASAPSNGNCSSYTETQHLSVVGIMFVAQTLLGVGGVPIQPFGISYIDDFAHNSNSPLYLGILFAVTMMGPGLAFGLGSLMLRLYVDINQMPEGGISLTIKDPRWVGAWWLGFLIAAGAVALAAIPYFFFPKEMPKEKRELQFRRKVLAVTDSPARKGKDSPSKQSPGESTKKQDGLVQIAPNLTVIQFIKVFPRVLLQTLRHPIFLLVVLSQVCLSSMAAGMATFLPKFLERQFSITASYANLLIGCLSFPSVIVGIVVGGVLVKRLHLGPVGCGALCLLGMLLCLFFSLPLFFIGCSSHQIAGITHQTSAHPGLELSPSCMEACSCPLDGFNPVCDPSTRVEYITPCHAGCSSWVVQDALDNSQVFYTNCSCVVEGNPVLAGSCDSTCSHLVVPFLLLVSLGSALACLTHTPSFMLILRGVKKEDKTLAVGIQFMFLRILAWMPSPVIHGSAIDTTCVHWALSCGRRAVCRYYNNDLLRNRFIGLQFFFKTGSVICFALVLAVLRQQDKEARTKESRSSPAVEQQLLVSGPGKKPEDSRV
# MEASUREMENT PROTOCOL: TP_TRANSPORTER: inhibition of E1S uptake (E1S: 0.00476 uM, benzoic acid: 10000 uM) in OATP-B-expressing HEK293 cells
# Format: functional, cell-based
# Parameters: scale not given: the % may be the effect or the level left
# RUN PARAMETERS: probe E1S (0.00476 uM), read-out: Activity
MEASUREMENT KIND: activity at 10000 uM

>  <COMPOUND>
O=C(O)c1ccccc1 [BENZOIC ACID]

>  <RESULT>
56.1%

$$$$

* * *

# EXPERIMENTAL TARGET: OATP-B (SLCO2B1, OATP2B1) (Homo sapiens)
# MEASUREMENT PROTOCOL: TP_TRANSPORTER: inhibition of E1S uptake (E1S: 0.00476 uM, phthalic acid: 10000 uM) in OATP-B-expressing HEK293 cells
# Type: functional, cell-based
# Design: scale not given: the % may be the effect or the level left
# RUN PARAMETERS: probe E1S (0.00476 uM), read-out: Activity

>  <ENTRY SMILES>
O=C(O)c1ccccc1C(=O)O

>  <READOUT UNITS>
%

>  <activity at 10000 uM>
42.7

$$$$

* * *

# EXPERIMENTAL TARGET: UniProt:O94956
# MEASUREMENT PROTOCOL: in vitro
# RUN PARAMETERS: HEK293 cells expressing OATP-B, probe E1S (0.00476 uM)
# Description: TP_TRANSPORTER: inhibition of E1S uptake (E1S: 0.00476 uM, acetic acid: 10000 uM) in OATP-B-expressing HEK293 cells

>  <ENTRY SMILES>
CC(=O)O

>  <activity at 10000 uM / %>
86.1

$$$$

* * *

# EXPERIMENTAL TARGET: UniProt O94956
# MEASUREMENT PROTOCOL: TP_TRANSPORTER: inhibition of E1S uptake (E1S: 0.00476 uM, oxalic acid: 10000 uM) in OATP-B-expressing HEK293 cells
# Type: functional, cell-based
# Parameters: scale not given: the % may be the effect or the level left
# RUN PARAMETERS: probe E1S (0.00476 uM), read-out: Activity

>  <ENTRY SMILES>
O=C(O)C(=O)O

>  <activity at 10000 uM [%]>
83.9

$$$$
